target.or.system: RORβ (Rattus norvegicus)
Construct: rRORβ (Pro 205-end); expressed in transfected cells
Sequence (P45446 216-470): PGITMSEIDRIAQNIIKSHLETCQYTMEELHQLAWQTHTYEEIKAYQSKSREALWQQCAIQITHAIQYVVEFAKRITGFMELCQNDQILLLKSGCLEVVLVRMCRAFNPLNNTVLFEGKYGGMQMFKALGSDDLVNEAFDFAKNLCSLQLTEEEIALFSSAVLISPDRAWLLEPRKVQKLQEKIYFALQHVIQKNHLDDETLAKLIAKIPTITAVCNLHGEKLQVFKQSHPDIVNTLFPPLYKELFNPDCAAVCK
procedure.text: Gal4-RORβ-LBD UAS-luciferase reporter assay in TRex-CHO-K1 cells (doxycycline-stimulated)
Assay type: cell-based
assay.conditions: IC50 (μM) (N=4) RORβ, individual controls of library 1295, second confirmatory dose response, Figure 2
property.name: IC50 (µM)

Worked examples, 3 compounds total:
{"compound": "O=C(CCCC1CCCCC1)NC1=NC[C@H](Cc2ccccc2)N1CCc1ccccc1", "target.or.system": "RORβ (Rattus norvegicus)", "IC50, µM": 12.3}
{"compound": "CC1CCC(C(=O)NC2=NC[C@H](Cc3ccccc3)N2CCc2ccccc2)CC1 (stereo partly drawn)", "target.or.system": "RORβ (Rattus norvegicus)", "IC50, µM": 9.4}
{"compound": "O=C(NC1=NC[C@H](Cc2ccccc2)N1CCc1ccccc1)C1(c2ccccc2)CC1", "target.or.system": "RORβ (Rattus norvegicus)", "IC50, µM": 14.2}

I = O=C(Cc1ccccc1)NC1=NC[C@H](Cc2ccccc2)N1CCCC1CCCCC1
II = CC(CC(=O)NC1=NC[C@H](Cc2ccccc2)N1CCc1ccccc1)c1ccccc1 (stereo partly drawn)
Data request: Hey, which is lower on measured IC50, I or II ? Please indicate the selected item by its label.
Data returned: II

---

target.or.system: RORα (Homo sapiens, UniProt P35398)
Construct: hRORα (Pro-211-end); expressed in transfected cells
Sequence (P35398 266-523): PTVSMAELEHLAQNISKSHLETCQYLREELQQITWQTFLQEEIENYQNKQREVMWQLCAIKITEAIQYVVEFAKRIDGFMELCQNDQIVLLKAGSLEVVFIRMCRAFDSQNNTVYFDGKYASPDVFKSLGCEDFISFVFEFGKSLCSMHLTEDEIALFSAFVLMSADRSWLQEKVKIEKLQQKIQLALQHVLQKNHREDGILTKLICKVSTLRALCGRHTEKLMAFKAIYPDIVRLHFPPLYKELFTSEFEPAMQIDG
procedure.text: Gal4-RORα-LBD UAS-luciferase reporter assay in TRex-CHO-K1 cells (doxycycline-stimulated)
Type: cell-based
assay.conditions: IC50 (μM) (N=4) RORα, individual controls of library 1295, second confirmatory dose response, Figure 2
property.name: IC50 (µM)

{"compound": "O=C(CCCC1CCCCC1)NC1=NC[C@H](Cc2ccccc2)N1CCc1ccccc1 [1295.300]", "units.text": "µM", "experimental.result": 10.2}
{"compound": "O=C(Cc1ccccc1)NC1=NC[C@H](Cc2ccccc2)N1CCCC1CCCCC1 [1295.268]", "units.text": "µM", "experimental.result": 10.1}
{"compound": "O=C(Cc1ccccc1)NC1=NC[C@H](Cc2ccccc2)N1CCc1ccc(-c2ccccc2)cc1 [1295.248]", "units.text": "µM", "experimental.result": 10.1}

---

target.or.system: RORγ (Mus musculus)
Construct: mRORγ (Pro-261-end); expressed in transfected cells
Sequence (P51450 261-516 limits assumed): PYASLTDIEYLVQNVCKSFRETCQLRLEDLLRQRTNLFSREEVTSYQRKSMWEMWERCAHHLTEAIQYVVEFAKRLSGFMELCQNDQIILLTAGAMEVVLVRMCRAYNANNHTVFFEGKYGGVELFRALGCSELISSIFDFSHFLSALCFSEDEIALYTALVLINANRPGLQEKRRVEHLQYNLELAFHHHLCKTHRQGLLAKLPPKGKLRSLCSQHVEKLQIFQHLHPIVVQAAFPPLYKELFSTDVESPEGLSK
procedure.text: Gal4-RORγ-LBD UAS-luciferase reporter assay in TRex-CHO-K1 cells (doxycycline-stimulated)
Format: cell-based
assay.conditions: individual controls 1295.201-307, 5 μg/ml, triplicate
property.name: % Inhibition RORγ 5 μg/ml (%)
Give the quantity in %, number only.

Some molecules with known % Inhibition RORγ 5 μg/ml results, for comparison:
{"input.smiles": "O=C(Cc1ccccc1)NC1=NC[C@@H](c2ccccc2)N1CCc1ccccc1", "% Inhibition RORγ 5 μg/ml, %": -5.2}
{"input.smiles": "O=C(Cc1ccccc1)NC1=NC[C@H](Cc2ccccc2)N1CCc1cccc(F)c1", "% Inhibition RORγ 5 μg/ml, %": 34.6}

Data request: Which measured % Inhibition RORγ 5 μg/ml value corresponds to CC(C)CN1C(NC(=O)Cc2ccccc2)=NC[C@@H]1Cc1ccccc1 ?
Data returned: -9.8

Data request: Value lookup for % Inhibition RORγ 5 μg/ml; key = CC(C)(C)[C@H]1CN=C(NC(=O)Cc2ccccc2)N1CCc1ccccc1
Data returned: -31.5

Source listed as paper PMC9029089.
